# assayed system: syn-pre-pro-Δ89-CB1R (Homo sapiens, UniProt P21554)
# Construct: expressed in transfected cells; host or cells: Saccharomyces cerevisiae BY4741-derived ZsGreen reporter strain (Gpa1-Gαi3 chimera; also sterol-modified strains ST01–ST15)
# Sequence (P21554 90-472 limits assumed, stated change not applied): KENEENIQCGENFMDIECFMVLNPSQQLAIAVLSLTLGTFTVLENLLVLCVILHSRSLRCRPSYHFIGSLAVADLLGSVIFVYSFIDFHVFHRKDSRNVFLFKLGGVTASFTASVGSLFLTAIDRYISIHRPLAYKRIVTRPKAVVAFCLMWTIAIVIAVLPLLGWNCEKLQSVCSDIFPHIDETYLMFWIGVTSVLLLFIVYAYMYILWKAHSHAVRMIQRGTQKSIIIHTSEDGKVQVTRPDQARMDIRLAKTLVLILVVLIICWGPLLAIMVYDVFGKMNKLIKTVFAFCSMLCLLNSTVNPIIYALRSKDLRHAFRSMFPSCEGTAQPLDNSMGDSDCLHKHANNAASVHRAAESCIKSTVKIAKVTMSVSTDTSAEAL
# protocol summary: cell-based
# Format: cell-based
recorded endpoint: maximal signaling in dose response

compound | meas value
CC(C)C(NC(=O)c1nn(Cc2ccc(F)cc2)c2ccccc12)C(N)=O (stereo not shown) | high maximal signaling
CCCC(NC(=O)c1nn(Cc2ccc(F)cc2)c2ccccc12)C(N)=O (single isomer, unassigned) [AB-FUBINACA isomer 1] | high maximal signaling
CCC(C(N)=O)N(C)C(=O)c1nn(Cc2ccc(F)cc2)c2ccccc12 (single isomer, unassigned) [AB-FUBINACA isomer 5] | lower response
CCC(C)(NC(=O)c1nn(Cc2ccc(F)cc2)c2ccccc12)C(N)=O (single isomer, unassigned) [AB-FUBINACA isomer 2] | lower response

* * *

# assayed system: syn-pre-pro-Δ89-CB1R (Homo sapiens)
# Construct: expressed in transfected cells; host or cells: Saccharomyces cerevisiae BY4741-derived ZsGreen reporter strain (Gpa1-Gαi3 chimera; also sterol-modified strains ST01–ST15)
# protocol summary: syn-pre-pro-Δ89-CB1R dose response in sterol-modified yeast strains ST01–ST15
# Assay type: cell-based
# test conditions: Strain ST09; read-out: EC50
pEC50: −log10 of the molar value.

molecule | pEC50
CCCCC/C=C\C/C=C\C/C=C\C/C=C\CCCC(=O)NCCCl [ACEA, Arachidonyl-2′-chloroethylamide] | 6.87

* * *

# assayed system: syn-pre-pro-Δ89-CB1R (Homo sapiens, UniProt P21554)
# Construct: expressed in transfected cells; host or cells: Saccharomyces cerevisiae BY4741-derived ZsGreen reporter strain (Gpa1-Gαi3 chimera; also sterol-modified strains ST01–ST15)
# protocol summary: cell-based
# Format: cell-based
# test conditions: read-out: EC50, ACEA dose response

molecule | result unit | EC50
CCCCC/C=C\C/C=C\C/C=C\C/C=C\CCCC(=O)NCCCl [ACEA, Arachidonyl-2′-chloroethylamide] | µM | 0.15

* * *

# assayed system: syn-pre-pro-Δ89-CB1R (Homo sapiens, UniProt P21554)
# Construct: expressed in transfected cells; host or cells: Saccharomyces cerevisiae BY4741-derived ZsGreen reporter strain (Gpa1-Gαi3 chimera; also sterol-modified strains ST01–ST15)
# protocol summary: syn-pre-pro-Δ89-CB1R dose response in sterol-modified yeast strains ST01–ST15
# Format: cell-based
# test conditions: Strain ST08; read-out: EC50
pEC50: −log10 of the molar value.

molecule | pEC50
CCCCC/C=C\C/C=C\C/C=C\C/C=C\CCCC(=O)NCCCl [ACEA, Arachidonyl-2′-chloroethylamide] | 6.99

* * *

# assayed system: WT CB1R (Homo sapiens)
# Sequence (P21554 whole entry): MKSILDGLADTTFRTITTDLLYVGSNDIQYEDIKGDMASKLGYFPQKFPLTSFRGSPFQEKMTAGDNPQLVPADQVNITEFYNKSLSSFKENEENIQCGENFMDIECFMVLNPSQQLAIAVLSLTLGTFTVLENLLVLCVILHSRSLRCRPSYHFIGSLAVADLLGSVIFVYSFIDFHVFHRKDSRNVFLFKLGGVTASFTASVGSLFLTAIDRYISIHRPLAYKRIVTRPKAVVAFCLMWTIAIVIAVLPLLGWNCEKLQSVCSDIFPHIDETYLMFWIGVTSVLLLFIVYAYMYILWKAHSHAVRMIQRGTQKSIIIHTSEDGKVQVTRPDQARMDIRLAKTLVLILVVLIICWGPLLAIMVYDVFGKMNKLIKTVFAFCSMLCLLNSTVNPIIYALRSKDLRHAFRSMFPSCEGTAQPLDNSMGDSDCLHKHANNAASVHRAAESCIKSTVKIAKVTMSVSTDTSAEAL
# test conditions: read-out: EC50, ACEA dose response
recorded endpoint: EC50 (µM)

compound | recorded endpoint | meas value
CCCCC/C=C\C/C=C\C/C=C\C/C=C\CCCC(=O)NCCCl [ACEA, Arachidonyl-2′-chloroethylamide] | EC50 | 1.3

* * *

# assayed system: syn-pre-pro-Δ89-CB1R (Homo sapiens)
# Construct: expressed in transfected cells; host or cells: Saccharomyces cerevisiae BY4741-derived ZsGreen reporter strain (Gpa1-Gαi3 chimera; also sterol-modified strains ST01–ST15)
# protocol summary: syn-pre-pro-Δ89-CB1R dose response in sterol-modified yeast strains ST01–ST15
# Format: cell-based
# test conditions: Strain ST03; read-out: EC50

compound | EC50
CCCCC/C=C\C/C=C\C/C=C\C/C=C\CCCC(=O)NCCCl [ACEA, Arachidonyl-2′-chloroethylamide] | 144 nM

src = paper PMC11173002
